Quick list: pIC50 per entry.
# Subject Of Test: central CCK-B receptor (Cavia porcellus)
Schema: pIC50 number; meaning minus log10 of the concentration expressed in molar units.

Answered examples (4):
get_value(item= CC(NC(=O)CC[C@@H](NC(=O)c1cc(Cl)cc(Cl)c1)C(=O)N1CCC2(CCCC2)CC1)C(=O)O (stereo partly shown) , readout=pIC50) returns 5.88

pIC50 measured on O=C(CC[C@@H](NC(=O)c1cc(Cl)cc(Cl)c1)C(=O)N1CCC2(CCCC2)CC1)NC(Cc1c[nH]c2ccccc12)C(=O)O (stereo partly shown) = 7.30

// O=C(CC[C@@H](NC(=O)c1cc(Cl)cc(Cl)c1)C(=O)N1CCC2(CCCC2)CC1)N[C@H](Cc1cccnc1)C(=O)O : pIC50 value = 6.60

Short answer for Cc1cccc(C(=O)N[C@H](CCC(=O)N[C@H](Cc2c[nH]c3ccccc23)C(=O)O)C(=O)N2CCC3(CCCC3)CC2)c1 : pIC50 was 5.45

---
The recorded pIC50 for CN(C(=O)CC[C@@H](NC(=O)c1cc(Cl)cc(Cl)c1)C(=O)N1CCC2(CCCC2)CC1)C(Cc1ccccc1)C(=O)O (stereo partly shown) is 6.66

According to the records, this compound O=C(CC[C@@H](NC(=O)c1cccc(Cl)c1)C(=O)NCCC12CC3CC(CC(C3)C1)C2)N[C@H](Cc1c[nH]c2ccccc12)C(=O)O displays pIC50 of 4.86

Measured pIC50 of O=C(CC[C@@H](NC(=O)c1cc(Cl)cc(Cl)c1)C(=O)N1CCC2(CCCC2)CC1)N[C@H](CC1CCCCC1)C(=O)O : 6.19

// pIC50 value for O=C(O)CC[C@@H](NC(=O)CC[C@@H](NC(=O)c1cc(Cl)cc(Cl)c1)C(=O)N1CCC2(CCCC2)CC1)C(=O)NCCc1ccccc1 : 6.10

Looking up O=C(CC[C@@H](NC(=O)c1cc(Cl)cc(Cl)c1)C(=O)N1CCC2(CCCC2)CC1)N[C@@H](Cc1ccccc1)C(=O)O , I see its pIC50 listed as 6.14

pIC50 measured on O=C(CC[C@@H](NC(=O)c1cc(Cl)cc(Cl)c1)C(=O)N1CCC2(CCCC2)CC1)NC(Cc1ccc(Cl)cc1)C(=O)O (stereo partly shown) = 6.17

Just so you know, measured pIC50 for CN(Cc1ccccc1)C(=O)[C@@H](CCC(=O)O)NC(=O)CC[C@@H](NC(=O)c1cc(Cl)cc(Cl)c1)C(=O)N1CCC2(CCCC2)CC1 came out at 6.74

Consider O=C(O)C[C@@H](Cc1ccccc1)NC(=O)CC[C@@H](NC(=O)c1cc(Cl)cc(Cl)c1)C(=O)N1CCC2(CCCC2)CC1 . Its measured pIC50 is 6.66

====

Below is a list of entries, each paired with its recorded pIC50 value.
# Subject Of Test: central CCK-B receptor (Cavia porcellus, UniProt H0VZC5)
# Sequence (H0VZC5 1-426): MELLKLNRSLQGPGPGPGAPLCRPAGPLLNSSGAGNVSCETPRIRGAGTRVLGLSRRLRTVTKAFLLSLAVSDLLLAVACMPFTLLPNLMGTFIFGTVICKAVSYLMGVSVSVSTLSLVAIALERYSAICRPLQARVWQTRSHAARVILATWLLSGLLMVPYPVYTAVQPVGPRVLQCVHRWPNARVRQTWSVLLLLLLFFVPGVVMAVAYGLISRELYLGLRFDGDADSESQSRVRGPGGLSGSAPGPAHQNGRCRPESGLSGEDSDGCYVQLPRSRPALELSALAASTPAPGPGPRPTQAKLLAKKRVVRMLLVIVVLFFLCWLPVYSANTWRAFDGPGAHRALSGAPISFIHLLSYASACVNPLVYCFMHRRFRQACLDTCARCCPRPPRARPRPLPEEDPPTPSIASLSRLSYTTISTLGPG
For clarity, pIC50 is expressed as the negative log10 of concentration in mol/L.

// solved cases for pIC50 follow
Readout pIC50 for O=C(CC[C@@H](NC(=O)c1cc(Cl)cc(Cl)c1)C(=O)N1CCC2(CCCC2)CC1)NCc1ccc(C(=O)O)cc1 , test system central CCK-B receptor (Cavia porcellus, UniProt H0VZC5), was 4.71

// assay central CCK-B receptor (Cavia porcellus, UniProt H0VZC5), entry CN(C(=O)CC[C@@H](NC(=O)c1cc(Cl)cc(Cl)c1)C(=O)N1CCC2(CCCC2)CC1)c1ccc(C(=O)O)cc1 , pIC50 value = 6.36

Entry O=C(CC[C@@H](NC(=O)c1cc(Cl)cc(Cl)c1)C(=O)N1CCC2(CCCC2)CC1)Nc1ccc(C(=O)O)cc1 : pIC50 on central CCK-B receptor (Cavia porcellus, UniProt H0VZC5) = 5.76

Hey, central CCK-B receptor (Cavia porcellus, UniProt H0VZC5) data for O=C(O)CC[C@@H](NC(=O)CC[C@@H](NC(=O)c1cc(Cl)cc(Cl)c1)C(=O)N1CCC2(CCCC2)CC1)C(=O)N1CCC2(CCCC2)CC1 : pIC50 came out at 5.77

Further cases:
central CCK-B receptor (Cavia porcellus, UniProt H0VZC5) data for CC1(C)CCC(NC(=O)[C@@H](CCC(=O)O)NC(=O)CC[C@@H](NC(=O)c2cc(Cl)cc(Cl)c2)C(=O)N2CCC3(CCCC3)CC2)CC1 ; its pIC50: 5.77

Param item: O=C(CC[C@@H](NC(=O)c1cc(Cl)cc(Cl)c1)C(=O)N1CCC2(CCCC2)CC1)N[C@H](COCc1ccccc1)C(=O)O ; param system: central CCK-B receptor (Cavia porcellus, UniProt H0VZC5); output pIC50: 6.57

Form field pIC50 for item CN(C(=O)c1cc(Cl)cc(Cl)c1)[C@H](CCC(=O)N[C@H](Cc1c[nH]c2ccccc12)C(=O)O)C(=O)N1CCC2(CCCC2)CC1 on central CCK-B receptor (Cavia porcellus, UniProt H0VZC5): 6.92

# pIC50 measured on central CCK-B receptor (Cavia porcellus, UniProt H0VZC5) for item O=C(CC[C@H](NC(=O)c1cc(Cl)cc(Cl)c1)C(=O)N1CCC2(CCCC2)CC1)N[C@H](Cc1ccccc1)C(=O)O [Compound S-9, reference compound] = 4.41

For the molecule CCCCCN(CCCCC)C(=O)[C@@H](CCC(=O)N[C@H](Cc1c[nH]c2ccccc12)C(=O)O)NC(=O)c1ccc2ccccc2c1 , the measured pIC50 on central CCK-B receptor (Cavia porcellus, UniProt H0VZC5) was 5.73

Observed pIC50 on central CCK-B receptor (Cavia porcellus, UniProt H0VZC5), entry O=C(CC[C@@H](NC(=O)c1cc(Cl)cc(Cl)c1)C(=O)N1CCC2(CCCC2)CC1)NC(Cc1ccccc1)C(=O)O (stereo partly shown) , equals 6.70

Measured on central CCK-B receptor (Cavia porcellus, UniProt H0VZC5), O=C(CC[C@@H](NC(=O)c1cc(Cl)cc(Cl)c1)C(=O)N1CCC2(CCCC2)CC1)N[C@@H](C(=O)O)c1ccccc1 has a documented pIC50 of 6.38

Value (pIC50, central CCK-B receptor (Cavia porcellus, UniProt H0VZC5)) for record CN(C(=O)[C@@H](CCC(=O)O)NC(=O)CC[C@@H](NC(=O)c1cc(Cl)cc(Cl)c1)C(=O)N1CCC2(CCCC2)CC1)c1ccccc1 = 6.15

O=C(O)CC[C@@H](NC(=O)CC[C@@H](NC(=O)c1cc(Cl)cc(Cl)c1)C(=O)N1CCC2(CCCC2)CC1)C(=O)Nc1ccc2ccccc2c1 on central CCK-B receptor (Cavia porcellus, UniProt H0VZC5) gives pIC50 = 6.15
